Please provide measured VNA IC50 for the entries that follow.
- target-or-test-system: hemagglutinin (HA) of influenza B/Malaysia/2506/04 (Victoria) (influenza B virus)
- test: cell-based or functional assay

Record request: VNA IC50 value, item SD3087 (VHH) VHH: EVQLLESGGGLVQPGGSLRLSCAASGFTLENKAIGWFRQAPGKEREGVLCISKSGSWTYYADSVKGRFTISRDNSKNTVYLQMNSLRPEDTAVYYCATTTAGGGLCWDGTTFSRLASSWGQGTLVTVSS
0.081 µM

Record request: VNA IC50 value, item SD3085 (VHH) VHH: EVQLVESGGGLVQPGGSLRLSCAASGFTFSTSWMYWLRQAPGKGLEWVSVINTDGGTYYADSVKGRFTISRDNSKNTLYLQMNSLRAEDTAVYYCAKDWGGPEPTRGQGTLVTVSS
0.013 µM
